molecular target: human glucagon receptor (Homo sapiens, UniProt P47871); construct: made in house; host or cells: FreeStyle CHO cells, transient transfection with pMSRαneo/hGCGR; membrane fraction (35,000 rpm pellet); test: Glucagon binding inhibitory activity ([125I]-glucagon binding to glucagon receptor membrane protein); settings: test compound 10 μM; 0.4% DMSO = 0%, non-labeled glucagon 1 μM = 100%; read-out: inhibitory rate (%) at 10 μM
Sequence (P47871 26-477): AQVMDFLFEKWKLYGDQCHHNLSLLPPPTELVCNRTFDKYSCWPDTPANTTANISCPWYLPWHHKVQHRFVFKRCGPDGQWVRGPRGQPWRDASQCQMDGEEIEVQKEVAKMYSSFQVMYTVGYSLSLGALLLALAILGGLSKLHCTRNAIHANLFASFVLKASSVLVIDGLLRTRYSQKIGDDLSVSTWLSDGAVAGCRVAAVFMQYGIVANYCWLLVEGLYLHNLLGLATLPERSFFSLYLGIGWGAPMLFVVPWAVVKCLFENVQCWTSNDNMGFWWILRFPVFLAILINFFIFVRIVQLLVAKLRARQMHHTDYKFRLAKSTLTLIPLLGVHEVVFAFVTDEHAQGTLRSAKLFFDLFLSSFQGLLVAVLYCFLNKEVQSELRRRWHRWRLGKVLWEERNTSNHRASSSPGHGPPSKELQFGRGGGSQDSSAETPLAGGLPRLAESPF
// inhibition at 10 µM lookup, one value per entry
value-kind: inhibition at 10 µM (%)

[[record]]
molecule = "COc1ccc(-n2cc(C(Nc3ccc(C(=O)N(C)CCC(=O)O)cc3)C3CCCCC3)c(C3CC3)n2)cc1 (stereo not shown)"
target_or_system = "human glucagon receptor (Homo sapiens, UniProt P47871)"
value_kind = "inhibition at 10 µM"
test_value = 66

[[record]]
molecule = "Cc1c(C(CC(C)C)Nc2ccc(C(=O)NCCC(=O)O)cc2)oc2ccc(Cl)cc12 (stereo not shown)"
target_or_system = "human glucagon receptor (Homo sapiens, UniProt P47871)"
value_kind = "inhibition at 10 µM"
test_value = 78

[[record]]
molecule = "O=C(O)CCNC(=O)c1ccc(NC(c2cn(-c3ccc(OC(F)(F)F)cc3)nc2OCc2ccccc2)C2CCCCC2)cc1 (stereo not shown)"
target_or_system = "human glucagon receptor (Homo sapiens, UniProt P47871)"
value_kind = "inhibition at 10 µM"
test_value = 71

[[record]]
molecule = "CN(CCC(=O)O)C(=O)c1ccc(NC(c2nn(C)c3ccccc23)C2CCCCC2)cc1 (stereo not shown)"
target_or_system = "human glucagon receptor (Homo sapiens, UniProt P47871)"
value_kind = "inhibition at 10 µM"
test_value = 60

[[record]]
molecule = "Cc1c(C(Nc2ccc(C(=O)N(C)CCC(=O)O)cc2)C2CCCCC2)sc2cccnc12 (stereo not shown)"
target_or_system = "human glucagon receptor (Homo sapiens, UniProt P47871)"
value_kind = "inhibition at 10 µM"
test_value = 76

[[record]]
molecule = "Cc1c(C(Nc2ccc(C(=O)N(C)CCC(=O)O)cc2)C2CCCC2)sc2ccccc12 (stereo not shown)"
target_or_system = "human glucagon receptor (Homo sapiens, UniProt P47871)"
value_kind = "inhibition at 10 µM"
test_value = 84

[[record]]
molecule = "Cc1c(C(Nc2ccc(C(=O)NCCC(=O)O)cc2)C2CCCCC2)oc2cccnc12 (stereo not shown)"
target_or_system = "human glucagon receptor (Homo sapiens, UniProt P47871)"
value_kind = "inhibition at 10 µM"
test_value = 85

[[record]]
molecule = "Cc1c(C(Nc2ccc(C(=O)N(C)CCC(=O)O)cc2)C(C)C)oc2ccc(OC3CCSCC3)cc12 (stereo not shown)"
target_or_system = "human glucagon receptor (Homo sapiens, UniProt P47871)"
value_kind = "inhibition at 10 µM"
test_value = 86

[[record]]
molecule = "Cc1c(C(Nc2ccc(C(=O)N(C)CCC(=O)O)cc2)C2CCCCC2)oc2ccc(Br)nc12 (stereo not shown)"
target_or_system = "human glucagon receptor (Homo sapiens, UniProt P47871)"
value_kind = "inhibition at 10 µM"
test_value = 68

[[record]]
molecule = "Cc1c(C(Nc2ccc(C(=O)N(C)CCC(=O)O)cc2)C2CCCCC2)oc2ccc(OCC3CCCO3)cc12 (stereo not shown)"
target_or_system = "human glucagon receptor (Homo sapiens, UniProt P47871)"
value_kind = "inhibition at 10 µM"
test_value = 90

[[record]]
molecule = "Cc1c(C(Nc2ccc(C(=O)N(C)CCC(=O)O)nc2)C2CCCCC2)oc2ccc(F)cc12 (stereo not shown)"
target_or_system = "human glucagon receptor (Homo sapiens, UniProt P47871)"
value_kind = "inhibition at 10 µM"
test_value = 76

[[record]]
molecule = "Cc1sc2ccccc2c1C(Nc1ccc(C(=O)NCCC(=O)O)cc1)C1CCCCC1 (stereo not shown)"
target_or_system = "human glucagon receptor (Homo sapiens, UniProt P47871)"
value_kind = "inhibition at 10 µM"
test_value = 78

[[record]]
molecule = "Cc1c(C(Nc2ccc(C(=O)N(C)CCC(=O)O)cc2)C2CCCCC2)oc2ccc(NS(C)(=O)=O)cc12 (stereo not shown)"
target_or_system = "human glucagon receptor (Homo sapiens, UniProt P47871)"
value_kind = "inhibition at 10 µM"
test_value = 70

[[record]]
molecule = "Cc1c(C(Nc2ccc(C(=O)N(C)CCC(=O)O)cc2)C2CCCCC2)oc2ccc(C#N)cc12 (stereo not shown)"
target_or_system = "human glucagon receptor (Homo sapiens, UniProt P47871)"
value_kind = "inhibition at 10 µM"
test_value = 80

[[record]]
molecule = "COc1ccc(-n2cc(C(CC(C)C)Nc3ccc(C(=O)NCCC(=O)O)cc3)c(C(C)C)n2)cc1 (stereo not shown)"
target_or_system = "human glucagon receptor (Homo sapiens, UniProt P47871)"
value_kind = "inhibition at 10 µM"
test_value = 62

[[record]]
molecule = "O=C(O)CCNC(=O)c1ccc(NC(c2cc3cc(C(F)(F)F)ccc3s2)C2CCCCC2)cc1 (stereo not shown)"
target_or_system = "human glucagon receptor (Homo sapiens, UniProt P47871)"
value_kind = "inhibition at 10 µM"
test_value = 74

